Assay: gradient 5% acetonitrile 3 min, to 50% in 2 min, to 85% in 15 min, held 3 min, 100 µL/min
Conditions: column: Zorbax Extend-C18 2.1 x 50 mm; eluents: water / acetonitrile, 0.1% formic acid
Threshold 800 s: RP-LC retention time strictly smaller gives Condition met, otherwise Condition not met.

{"molecule": "O=C(Nc1ccccc1F)N1C[C@H]2C[C@@H](C1)c1cccc(=O)n1C2", "classification": "Condition met"}
{"molecule": "CCc1csc(-c2ccc(N3CCN(C(=O)Cc4ccc(F)cc4)CC3)nc2)n1", "classification": "Condition not met"}
{"molecule": "O=C(Nc1ccc(F)cc1)Nc1cccc(-c2ccc(N3CCOCC3)nn2)c1", "classification": "Condition met"}
{"molecule": "O=C(c1sc2ncccc2c1-n1cccc1)N1CCN(c2ccccc2Cl)CC1", "classification": "Condition not met"}
{"molecule": "CSc1ccc(CNC(=O)c2cc3n(n2)CCCN(Cc2ccccc2)C3=O)cc1", "classification": "Condition not met"}
{"molecule": "Cc1ccc(C2CC(=O)c3cnc(Nc4nc(C)c5cc(C)c(C)cc5n4)nc3C2)cc1 (centres undefined)", "classification": "Condition not met"}
{"molecule": "Cc1cc(C)c(CNC(=O)C2CC(=O)N(c3cccc(NC(=O)C4CCC4)c3)C2)c(C)c1 (centres undefined)", "classification": "Condition not met"}
{"molecule": "O=C(c1cccnc1N1CCNC(c2ccccc2)C1)N1CCN(c2ncccn2)CC1 (centres undefined)", "classification": "Condition met"}
{"molecule": "COc1ccc(NS(=O)(=O)c2ccc(N3C(=O)CCC3=O)cc2)c(OC)c1", "classification": "Condition met"}
{"molecule": "CCCCNC(=O)C1CCCN(c2nnc(C)c3c(C)n(-c4ccc(Cl)cc4)nc23)C1 (centres undefined)", "classification": "Condition met"}
{"molecule": "Cn1cc(-c2nnc(SCC(=O)N3CCc4ccccc4C3)n2C)c(-c2ccccc2)n1", "classification": "Condition met"}
{"molecule": "CS(=O)(=O)N1CCC(C(=O)NCCC2=CCCCC2)Oc2ccc(Cl)cc21 (centres undefined)", "classification": "Condition not met"}
{"molecule": "O=C(c1ccc(OCC2CCCN2C(=O)c2ccc(F)cc2)cc1)N1CCCC1 (centres undefined)", "classification": "Condition not met"}
{"molecule": "CCOc1ccc(-c2nc(-c3cccc(-c4ccnn4C)c3)no2)cc1OCC", "classification": "Condition not met"}
{"molecule": "O=C(NCCc1c[nH]c2ccccc12)C(=O)NCC(c1ccco1)N1CCOCC1 (centres undefined)", "classification": "Condition met"}
